Values compiled from patent US20140079632A1.

Known pIC50 of a selection of compounds
Target under test: tPA (recombinant) (Homo sapiens, UniProt P00750)
Sequence (P00750 36-562, species assumed): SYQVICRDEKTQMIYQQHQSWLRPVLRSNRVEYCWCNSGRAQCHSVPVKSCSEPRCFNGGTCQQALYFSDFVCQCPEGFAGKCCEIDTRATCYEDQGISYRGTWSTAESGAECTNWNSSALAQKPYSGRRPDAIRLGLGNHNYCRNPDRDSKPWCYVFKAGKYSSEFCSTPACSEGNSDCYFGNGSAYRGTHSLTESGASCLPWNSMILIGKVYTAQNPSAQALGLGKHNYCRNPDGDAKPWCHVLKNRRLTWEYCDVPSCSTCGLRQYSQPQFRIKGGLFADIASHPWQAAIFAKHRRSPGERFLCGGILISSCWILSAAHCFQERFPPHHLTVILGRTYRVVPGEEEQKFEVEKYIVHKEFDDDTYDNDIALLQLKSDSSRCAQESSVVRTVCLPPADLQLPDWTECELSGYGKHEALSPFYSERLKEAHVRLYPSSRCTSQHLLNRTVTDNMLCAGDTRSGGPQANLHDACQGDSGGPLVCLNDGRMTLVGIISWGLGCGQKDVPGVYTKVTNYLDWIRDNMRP
Experimental details: Selectivity: tPA inhibition, substrate Biophen CS-05(88)
Test context: 15 min preincubation; Tris buffer pH 8.3; 1.25 mM substrate
# pIC50 = -log10(concentration in molar units)

Examples from the recorded data:
O=C(O)C(F)(F)F.[N-]=[N+]=NCCCCCCOC(=O)NC(Cc1ccc(NC(=N)N)cc1)P(=O)(Oc1ccccc1)Oc1ccccc1 (stereo not drawn) [Intermediate 59, 2,2,2-trifluoroacetate] = 4.78
Cl.N=C(N)Nc1ccc(CC(NC(=O)OCCCc2cn(CCOCCOCCOCCNC(=O)c3ccc(F)cc3)nn2)P(=O)(Oc2ccccc2)Oc2ccccc2)cc1 (stereo not drawn) [Final compound 8, hydrochloride] = 4.34
C#CCCCOC(=O)NC(Cc1ccc(NC(=N)N)cc1)P(=O)(Oc1ccc(NC(C)=O)cc1)Oc1ccc(NC(C)=O)cc1 (stereo not drawn) [Intermediate 63] = 4.62
C#CCOCCOC(=O)NC(Cc1ccc(NC(=N)N)cc1)P(=O)(Oc1ccccc1)Oc1ccccc1.O=C(O)C(F)(F)F (stereo not drawn) [Intermediate 55] = 4.18
CCN(CC)c1ccc2c(-c3ccccc3C(=O)N3CCN(C(=O)CCCCCCCn4cc(COCCOCCOC(=O)NC(Cc5ccc(NC(=N)N)cc5)P(=O)(Oc5ccccc5)Oc5ccccc5)nn4)CC3)c3ccc(=[N+](CC)CC)cc-3oc2c1 (stereo not drawn) [Final compound 2] = 4.48

Data request: // returns reported pIC50 for input C#CCOCCOCCOC(=O)NC(Cc1ccc(NC(=N)N)cc1)P(=O)(Oc1ccccc1)Oc1ccccc1.O=C(O)C(F)(F)F (stereo not drawn) [Intermediate 56, 2,2,2-trifluoroacetate]
Data returned: 4.19

Data request: Name the recorded pIC50 for O=C(O)C(F)(F)F.[N-]=[N+]=NCCOCCOC(=O)NC(Cc1ccc(NC(=N)N)cc1)P(=O)(Oc1ccccc1)Oc1ccccc1 (stereo not drawn) [Intermediate 60] .
Data returned: 4.25

Data request: # query: pIC50 of entry CCN(CC)c1ccc2c(-c3ccccc3C(=O)N3CCN(C(=O)CCCCCCCn4cc(COCCOCCOCCOC(=O)NC(Cc5ccc(NC(=N)N)cc5)P(=O)(Oc5ccccc5)Oc5ccccc5)nn4)CC3)c3ccc(=[N+](CC)CC)cc-3oc2c1 (stereo not drawn) [Final compound 3]
Data returned: 4.38

Data request: Fill in the blank: the reported pIC50 of CCN(CC)c1ccc2c(-c3ccccc3C(=O)N3CCN(C(=O)CCCCCCCn4cc(COCCOC(=O)NC(Cc5ccc(NC(=N)N)cc5)P(=O)(Oc5ccccc5)Oc5ccccc5)nn4)CC3)c3ccc(=[N+](CC)CC)cc-3oc2c1.O=C(O)C(F)(F)F.[Cl-] (stereo not drawn) [Final compound 1] is ____.
Data returned: 5.10
